Overview of reported Jurkat chemotaxis (% of control IgG4) at 10 µg/mL across a group of binders:
# Assay system: T1, human CD81 on CD81-expressing cells (Jurkat E6.1, human PBMC, Ramos) (human, UniProt P60033 1-236)
# T1 sequence: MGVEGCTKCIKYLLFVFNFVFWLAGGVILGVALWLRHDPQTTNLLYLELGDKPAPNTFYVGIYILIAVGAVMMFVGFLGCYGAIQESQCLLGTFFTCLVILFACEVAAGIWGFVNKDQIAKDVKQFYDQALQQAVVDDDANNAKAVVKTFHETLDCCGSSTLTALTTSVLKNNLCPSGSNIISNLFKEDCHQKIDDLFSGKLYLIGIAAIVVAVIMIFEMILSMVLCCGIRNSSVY
# Measurement description: cell-based or functional assay
Measure: Jurkat chemotaxis (% of control IgG4) at 10 µg/mL (%)

Binder	Observed measurement
003-A11 (antibody, human IgG4 S228P, lambda, V domains shown, IgG4 S228P) VH: EVQLLESGGGLVQPGGSLRLSCAASGFTFGSNYMSWVRQAPGKGLEWVSYISSSSTYTDYADSVKGRFTISRDNSKNTLYLQMNSLRAEDTAVYYCARYSYGRDNFDYWGQGTLVTVSS VL: QSVLTQPPSASGTPGQRVTISCTGSTSNIGAGYDTHWYQQLPGTAPKLLIYGNSNRPSGVPDRFSGSKSGTSASLAISGLRSEDEADYYCQSYDTNLSGWVFGGGTKLTVLG	2
003-F08 (antibody, human IgG4 S228P, lambda, V domains shown, IgG4 S228P) VH: EVQLLESGGGLVQPGGSLRLSCAASGFTFSSNYMSWVRQAPGKGPEWVSYISSSSTYADYADSVKGRFTISRDNSKNTLYLQMNSLRAEDTAVYYCARYSYGRDNFDYWGQGTLVTVSS VL: QSVLTQPSSASGTPGQRVTISCTGSTSNIGAGYDTHWYQQLPGTAPKLLIYGNSNRPSGVPDRFSGSKSGTSASLAISGLRSEDEADYYCQSYDTNLSAWVFGGGTKLTVLG	-4
